pIC50 values by entry
- assay.target: Estrone Sulfatase (Homo sapiens)
- Construct: endogenous in cells; host or cells: MCF-7 human breast cancer cells (American Type Culture Collection)
- Sequence (P08842 22-583): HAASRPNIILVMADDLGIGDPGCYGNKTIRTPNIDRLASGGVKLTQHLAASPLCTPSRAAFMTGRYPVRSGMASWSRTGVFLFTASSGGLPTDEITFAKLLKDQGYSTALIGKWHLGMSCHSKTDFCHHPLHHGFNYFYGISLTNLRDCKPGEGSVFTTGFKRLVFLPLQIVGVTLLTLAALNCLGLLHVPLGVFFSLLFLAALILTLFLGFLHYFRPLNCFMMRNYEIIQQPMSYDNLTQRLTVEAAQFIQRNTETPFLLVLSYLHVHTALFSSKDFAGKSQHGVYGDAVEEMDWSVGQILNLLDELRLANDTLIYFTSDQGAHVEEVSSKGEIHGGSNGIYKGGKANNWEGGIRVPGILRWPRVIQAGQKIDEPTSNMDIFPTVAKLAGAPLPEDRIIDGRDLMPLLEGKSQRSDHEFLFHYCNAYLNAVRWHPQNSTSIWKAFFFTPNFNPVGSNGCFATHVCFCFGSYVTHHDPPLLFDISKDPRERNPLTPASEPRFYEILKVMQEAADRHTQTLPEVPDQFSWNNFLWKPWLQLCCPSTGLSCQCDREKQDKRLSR
- assay.text: Effects of Inhibitors on Estrone Sulfatase Activity in MCF-7 Cells
- Type: cell-based
pIC50: −log10 of the molar value.
quantity: pIC50

# compound, measurement
measured = [
    ("CC(C)(C)[Si](C)(C)O[C@@H]1CC[C@H]2[C@@H]3CCc4cc(OS(N)(=O)=O)ccc4[C@H]3CC[C@]12C [Compound 52]", 9.51),
    ("COc1cc2c(cc1OS(N)(=O)=O)CC[C@@H]1[C@@H]2CC[C@]2(C)C(=O)CC[C@@H]12 [Compound 67]", 10.80),
    ("C[C@]12CC[C@@H]3c4cc([N+](=O)[O-])c(OS(N)(=O)=O)cc4CC[C@H]3[C@@H]1CCC2=O [Compound 78]", 8.15),
]
